Hey, just so you know, these numbers are from ChEMBL document CHEMBL5331095.

Target Under Test: Proprotein convertase subtilisin/kexin type 9 (Homo sapiens)
Assay Info: Inhibition of PCSK9 transcriptional activity in human HepG2 cells stably expressing luciferase reporter plasmid containing PCSK9 promoter assessed as decrease in luciferase activity at 10 ug/ml incubated for 24 hrs by Luciferase assay relative to control
Format: cell-based
Experimental Parameters: dose 10.0 µg/ml
Result Type: inhibition (%)

(A) Cn1c(=O)c2c(nc(NCCO)n2Cc2cccc(Br)c2)n(C)c1=O
(B) COc1cccc(Cn2c(NC[C@H](C)O)nc3c2c(=O)n(C)c(=O)n3C)c1
Query: Would you kindly point out which of A and B has the smaller inhibition figure? Identify your selection by its label.
Reply: A
(A: 34.2%, B: 68.9%)

(P) COc1cccc(Cn2c(N[C@@H](C)CO)nc3c2c(=O)n(C)c(=O)n3C)c1
(Q) Cn1c(=O)c2c(nc(NCCO)n2CC2CCOCC2)n(C)c1=O
Query: Lab log: flag the item ( P or Q ) with the smaller inhibition figure. Your choice should be expressed through its label.
Reply: Q
